Reference source for all entries: patent US20250163167A1

Molecular target: T1, human IL-10 receptor (hIL-10R alpha and beta chains) on HEK-Blue IL-10 reporter cells (human, UniProt Q13651 22-578; Q08334 20-325)
T1 sequence 1: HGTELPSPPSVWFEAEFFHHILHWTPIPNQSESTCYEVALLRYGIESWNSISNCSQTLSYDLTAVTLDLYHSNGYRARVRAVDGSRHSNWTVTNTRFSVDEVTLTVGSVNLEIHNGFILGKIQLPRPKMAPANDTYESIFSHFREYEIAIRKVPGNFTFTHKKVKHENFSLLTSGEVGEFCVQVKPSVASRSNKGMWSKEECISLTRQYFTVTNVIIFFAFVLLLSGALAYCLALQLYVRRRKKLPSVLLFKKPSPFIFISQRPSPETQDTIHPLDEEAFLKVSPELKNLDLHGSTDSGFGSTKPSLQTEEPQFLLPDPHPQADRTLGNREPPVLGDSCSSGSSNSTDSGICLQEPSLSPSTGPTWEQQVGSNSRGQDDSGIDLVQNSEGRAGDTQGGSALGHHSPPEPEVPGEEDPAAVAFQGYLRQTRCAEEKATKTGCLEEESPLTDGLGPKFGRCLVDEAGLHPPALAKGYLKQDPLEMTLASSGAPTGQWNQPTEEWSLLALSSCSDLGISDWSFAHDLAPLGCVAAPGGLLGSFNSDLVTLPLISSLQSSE
T1 sequence 2: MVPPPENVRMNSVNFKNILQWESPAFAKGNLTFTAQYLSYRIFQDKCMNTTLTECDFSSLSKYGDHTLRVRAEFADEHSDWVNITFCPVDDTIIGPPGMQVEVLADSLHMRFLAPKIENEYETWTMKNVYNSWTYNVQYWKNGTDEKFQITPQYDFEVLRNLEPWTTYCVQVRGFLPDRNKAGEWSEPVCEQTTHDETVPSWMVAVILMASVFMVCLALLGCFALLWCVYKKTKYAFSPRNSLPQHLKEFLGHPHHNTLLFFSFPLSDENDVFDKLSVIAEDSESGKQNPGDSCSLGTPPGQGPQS
Assay: cell-based or functional assay

binder	readoutUnits	Abs 630 (100 nM)
IL10R binding molecule of SEQ ID NO: 297 (bispecific antibody) QVQLQESGGGSVQAGGSLRLSCGASGYTYSSYCMGWFRQVPGKEREGVAVIDSDGSTSYADSVKGRFTISKDNGKNTLYLQMNSLKPEDTAMYYCAADLGHYRPPCGVLYLGMDYWGKGTQVTVSSGGGSQVQLQESGGGSVQTGGSLRLSCAASGYTYLRGCMGWFRQAPGKEREGVAVMDVVGDRRSYIDSVKGRFTISRDNAANSVYLQMDNLKPEDTAMYYCTAGPNCVGWRSGLDYWGQGTQVTVSSASHHHHHH	Abs 630	0.36
IL10R binding molecule of SEQ ID NO: 336 (bispecific antibody) QVQLQESGGGSVEAGGSLRLSCAASGYTHSSYCMGWFRQAPGKEREGVAAIDVDGSTTYADSVKGRFTISKDNAKNTLYLQMNSLKPEDTGMYYCAAEFADCSSNYFLPPGAVRYWGQGTQVTVSSGGGSQVQLQESGGGSVQAGGSLRLSCAVSGYAYSTYCMGWFRQAPGKEREGVAAIDSGGSTSYADSVKGRFTISKDNAKNTLYLRMNSLKPEDTAMYYCAAVPPPPDGGSCLFLGPEIKVSKADFRYWGQGTQVTVSSASHHHHHH	Abs 630	0.45
